B1: HDV Ribozyme (parent)
chain: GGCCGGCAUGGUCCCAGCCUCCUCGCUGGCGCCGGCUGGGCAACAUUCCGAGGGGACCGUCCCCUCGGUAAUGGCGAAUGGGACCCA

# Variants of: B1
# method_description: self-cleavage, relative activity (ratio to wild type); higher = more cleavage; co-transcriptional
Response key: y means self-cleavage >= 0.1; n means self-cleavage < 0.1.

Worked examples follow.
>  <variant_name>
G2U G52A

>  <answer_label>
n

$$$$
>  <variant_name>
C4U G74A

>  <answer_label>
y

$$$$
>  <variant_name>
G1A G73C

>  <answer_label>
n

$$$$

Q: Decide: is the reported value of self-cleavage for G31C G82A equal to or greater than 0.1?
A: n

Q: Decide: is the reported value of self-cleavage for U9C G76A equal to or greater than 0.1?
A: y

Q: Decide: is the reported value of self-cleavage for U23G A43C equal to or greater than 0.1?
A: y

Q: Decide: is the reported value of self-cleavage for C7A G31U equal to or greater than 0.1?
A: y

Q: Decide: is the reported value of self-cleavage for G34C G74C equal to or greater than 0.1?
A: n

Q: Decide: is the reported value of self-cleavage for U20C G73C equal to or greater than 0.1?
A: y

Q: Decide: is the reported value of self-cleavage for G35U U37A equal to or greater than 0.1?
A: y

Q: Decide: is the reported value of self-cleavage for U46C C64U equal to or greater than 0.1?
A: y
